# SETTINGS: PO, 50 mg/kg, vehicle PEG400:H2O pH 2.3 30:70
Consider the cut-off 2 h. If the recorded T1/2 is strictly smaller, the label is yes; if not, the label is no.

MOLECULE | ASSIGNED_CATEGORY
Cc1cc(C(=O)Nc2cccc(Oc3ccc4c(/C=C/c5ccccn5)n[nH]c4c3)c2)nn1C [Reference Example 31(b)] | yes
O=C(Nc1cccc(Oc2ccc3c(/C=C/c4ccccn4)n[nH]c3c2)c1)c1ccccc1 [Reference Example 31(a)] | yes
CCn1nc(C)cc1C(=O)Nc1cccc(Oc2ccc3c(/C=C/c4ccccn4)n[nH]c3c2)c1 [Reference Example 31(d)] | no
O=C(Nc1ccccc1)c1ccccc1Sc1ccc2c(/C=C/c3ccccn3)n[nH]c2c1 [Reference Example 33(c)] | no
O=C(c1cccc(NC(=O)c2ccc(Cl)s2)c1)c1ccc2c(/C=C/c3ccccn3)n[nH]c2c1 | yes
Cn1nc(C(C)(C)C)cc1C(=O)Nc1cccc(C(=O)c2ccc3c(/C=C/c4ccccn4)n[nH]c3c2)c1 | yes
CCn1nc(C)cc1C(=O)Nc1cccc(C(=O)c2ccc3c(/C=C/c4ccccn4)n[nH]c3c2)c1 | no
CC1CC1C(=O)Nc1cccc(C(=O)c2ccc3c(/C=C/c4ccccn4)n[nH]c3c2)c1 (stereo not drawn) | yes

----------
# SETTINGS: mouse, in vivo, po, 50 mg/kg, pH 2.3
READOUT: AUCleast (ng·h/mL)

MOLECULE | RESULT
O=C(Nc1cccc(C(=O)c2ccc3c(-c4nc5ccccc5[nH]4)n[nH]c3c2)c1)c1ccccc1 [42 (b)] | 4747
Cc1ccc(CNC(=O)c2ccccc2Sc2ccc3c(/C=C/c4ccccn4)n[nH]c3c2)o1 [35 (h)] | 26
O=C(NCC(F)(F)F)c1ccccc1Sc1ccc2c(/C=C/c3ccccn3)n[nH]c2c1 [33 (f)] | 1436
O=C(c1cccc(NC(=O)c2cccc3[nH]ccc23)c1)c1ccc2c(/C=C/c3ccccn3)n[nH]c2c1 [41 (d)] | 7072
O=C(Nc1cccc(C(=O)c2ccc3c(-c4nc5cccnc5[nH]4)n[nH]c3c2)c1)c1ccccc1 [42 (d)] | 46

----------
# MEASURED_ON: human FGF-R1 (Homo sapiens, UniProt P11362, C488A/C584S/L457V)
# Sequence (P11362 456-766 L457V/C488A/C584S): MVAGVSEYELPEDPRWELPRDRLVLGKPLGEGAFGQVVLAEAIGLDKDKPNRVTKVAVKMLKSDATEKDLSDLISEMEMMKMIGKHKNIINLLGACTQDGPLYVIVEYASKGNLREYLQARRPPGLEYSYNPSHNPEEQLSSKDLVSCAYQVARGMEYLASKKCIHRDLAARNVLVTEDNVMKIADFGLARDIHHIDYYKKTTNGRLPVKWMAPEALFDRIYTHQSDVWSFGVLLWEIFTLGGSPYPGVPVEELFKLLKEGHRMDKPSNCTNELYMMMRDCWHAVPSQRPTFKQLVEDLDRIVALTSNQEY
# ASSAY_INFO: FGF-R spectrophotometric assay
# Format: biochemical
# SETTINGS: Table 1; compound concentration 1 µM; read-out: FGF-P* (% inhibition)
Lab note: compare inhibition at 1 µM against 80%. Equal or greater, write MET. Smaller, write NOT MET.

MOLECULE | ASSIGNED_CATEGORY
CCCONC(=O)c1ccccc1Sc1ccc2c(/C=C/c3ccccn3)n[nH]c2c1 [Reference Example 35(t)] | NOT MET
Cc1cc(C(=O)Nc2cc(Nc3ccc4c(/C=C/c5ccccn5)n[nH]c4c3)c(F)cc2C)n(C)n1 [Example 48(b)] | NOT MET
COc1cccc(C(=O)Nc2cccc(C(=O)c3ccc4c(/C=C/c5ccccn5)n[nH]c4c3)c2)c1 [Reference Example 41(bb)] | MET
CC(C)ONC(=O)c1ccccc1Sc1ccc2c(/C=C/c3ccccn3)n[nH]c2c1 [Reference Example 35(k)] | NOT MET
CN(O)C(=O)c1ccccc1Sc1ccc2c(/C=C/c3ccccn3)n[nH]c2c1 [Reference Example 35(o)] | NOT MET
CCONC(=O)c1cccc(F)c1Sc1ccc2c(/C=C/c3ccccn3)n[nH]c2c1 [Reference Example 37(a)] | NOT MET
O=C(NCC1CC1)c1ccccc1Sc1ccc2c(/C=C/c3ccccn3)n[nH]c2c1 [Reference Example 35(v)] | NOT MET
CCn1nc(C)cc1C(=O)Nc1cccc(Oc2ccc3c(/C=C/c4cn(C)c(C)n4)n[nH]c3c2)c1 [Reference Example 31(f)] | MET
CCn1nc(C)cc1C(=O)Nc1cccc(Oc2ccc3c(/C=C/c4ccccc4)n[nH]c3c2)c1 [Reference Example 30(e)] | MET
